Form field: Iron mobilized (one value per entry).
# Assay System: Lactotransferrin (Bos taurus)
# Test Details: Tested for iron mobilization from lactoferrin at physiological pH after 24 hours
Dear colleague, please return just the value in %, with no unit written.

Reference set, count: 3
# Test Smiles, Assay System, Iron mobilized, %
data = [
    ("CCC(=O)NCCn1ccc(=O)c(O)c1C", "Lactotransferrin (Bos taurus)", 61),
    ("CCn1ccc(=O)c(OCc2ccccc2)c1C", "Lactotransferrin (Bos taurus)", 2),
    ("C=C(C)C(=O)NCCn1ccc(=O)c(O)c1C", "Lactotransferrin (Bos taurus)", 63),
]

For reference, reported Iron mobilized for C=CC(=O)NCCn1ccc(=O)c(O)c1C stands at 62

For reference, reported Iron mobilized for Cc1c(OCc2ccccc2)c(=O)ccn1CCN stands at 4

For reference, reported Iron mobilized for CCn1ccc(=O)c(O)c1C stands at 71

For reference, reported Iron mobilized for Cc1c(O)c(=O)ccn1CCN stands at 60

* * *

# Test system: Listeria innocua
# Test Details: Tested for growth inhibition against Listeria inocua
# Assay type: functional
# Parameters: concentration or dose not given beside the values
Observation Type: Growth inhibition
For clarity, give the value followed by its unit.

# Test Smiles, Assay System, Observation Type, Result
records = [
    ("Cc1c(O)c(=O)ccn1CCN", "Listeria innocua", "Growth inhibition", "93%"),
    ("C=CC(=O)NCCn1ccc(=O)c(O)c1C", "Listeria innocua", "Growth inhibition", "87%"),
]

For reference, reported Growth inhibition for C=C(C)C(=O)NCCn1ccc(=O)c(O)c1C stands at 90%

For reference, reported Growth inhibition for CCC(=O)NCCn1ccc(=O)c(O)c1C stands at 86%

For reference, reported Growth inhibition for Cc1c(OCc2ccccc2)c(=O)ccn1CCN stands at 34%

For reference, reported Growth inhibition for CCn1ccc(=O)c(OCc2ccccc2)c1C stands at 72%

For reference, reported Growth inhibition for CCn1ccc(=O)c(O)c1C stands at 89%

* * *

Form field: Growth inhibition (one value per entry).
# Tested on: Escherichia coli
# Test Details: Tested for growth inhibition against Escherichia coli
# Type: functional
# Parameters: concentration or dose not given beside the values
Dear colleague, please return just the value in %, with no unit written.

# Test Smiles, Growth inhibition (%)
rows = [
    ("CCn1ccc(=O)c(O)c1C", 100),
    ("C=C(C)C(=O)NCCn1ccc(=O)c(O)c1C", 100),
    ("CCn1ccc(=O)c(OCc2ccccc2)c1C", 53),
    ("C=CC(=O)NCCn1ccc(=O)c(O)c1C", 100),
    ("Cc1c(OCc2ccccc2)c(=O)ccn1CCN", 0),
    ("CCC(=O)NCCn1ccc(=O)c(O)c1C", 100),
]

Consider now this further compound.
For reference, reported Growth inhibition for Cc1c(O)c(=O)ccn1CCN stands at 100
